biological target: wild-type hGDH1 (Homo sapiens, UniProt P00367); construct: made in house; host or cells: Sf21 insect cells, baculovirus; test: Inhibition of purified recombinant GDH by female steroidal hormones; format: biochemical; details: IC50, 0.1 mM ADP
endpoint: pIC50
Please report pIC50 as the negative decimal logarithm of the molar concentration, giving only the number.

**Query** Record lookup: for wild-type hGDH1 (Homo sapiens, UniProt P00367), what pIC50 belongs to `C[C@]12CC[C@@H]3c4ccc(O)cc4CC[C@H]3[C@@H]1CC[C@@H]2O` ?
**Result** 4.16

* * *

target: hGDH2 (Homo sapiens); construct: made in house; host or cells: Sf21 insect cells, baculovirus; assay: GTP inhibition of purified recombinant GDH activity; format: biochemical; details: 0.1 mM ADP
Sequence (P49448 54-558): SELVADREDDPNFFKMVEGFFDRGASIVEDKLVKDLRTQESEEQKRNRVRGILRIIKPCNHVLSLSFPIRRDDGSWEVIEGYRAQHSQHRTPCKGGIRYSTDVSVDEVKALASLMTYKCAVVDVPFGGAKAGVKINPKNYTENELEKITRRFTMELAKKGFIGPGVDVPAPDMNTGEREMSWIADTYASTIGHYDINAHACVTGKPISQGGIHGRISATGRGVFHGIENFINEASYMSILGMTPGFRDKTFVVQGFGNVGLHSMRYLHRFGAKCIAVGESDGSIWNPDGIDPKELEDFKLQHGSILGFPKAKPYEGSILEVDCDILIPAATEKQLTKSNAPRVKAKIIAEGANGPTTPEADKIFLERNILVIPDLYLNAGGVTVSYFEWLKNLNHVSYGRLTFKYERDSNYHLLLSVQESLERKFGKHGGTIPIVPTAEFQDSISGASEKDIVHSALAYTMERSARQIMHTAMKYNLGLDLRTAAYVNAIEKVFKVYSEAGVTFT
endpoint: IC50 (µM)
Give the value, in units of µM, as a plain number.

**Query** Record lookup: for hGDH2 (Homo sapiens), what IC50 belongs to `Nc1nc2c(ncn2[C@@H]2O[C@H](COP(=O)(O)OP(=O)(O)OP(=O)(O)O)[C@@H](O)[C@H]2O)c(=O)[nH]1` ?
**Result** 12.2

* * *

molecular target: Ser443-hGDH1 (Arg443Ser hGDH1 mutant) (Homo sapiens, UniProt P00367, R496S); construct: made in house; host or cells: Sf21 insect cells; assay: Inhibition of purified recombinant GDH by female steroidal hormones; format: biochemical; conditions: 0.1 mM ADP; read-out: IC50
Sequence (P00367 54-558 R496S): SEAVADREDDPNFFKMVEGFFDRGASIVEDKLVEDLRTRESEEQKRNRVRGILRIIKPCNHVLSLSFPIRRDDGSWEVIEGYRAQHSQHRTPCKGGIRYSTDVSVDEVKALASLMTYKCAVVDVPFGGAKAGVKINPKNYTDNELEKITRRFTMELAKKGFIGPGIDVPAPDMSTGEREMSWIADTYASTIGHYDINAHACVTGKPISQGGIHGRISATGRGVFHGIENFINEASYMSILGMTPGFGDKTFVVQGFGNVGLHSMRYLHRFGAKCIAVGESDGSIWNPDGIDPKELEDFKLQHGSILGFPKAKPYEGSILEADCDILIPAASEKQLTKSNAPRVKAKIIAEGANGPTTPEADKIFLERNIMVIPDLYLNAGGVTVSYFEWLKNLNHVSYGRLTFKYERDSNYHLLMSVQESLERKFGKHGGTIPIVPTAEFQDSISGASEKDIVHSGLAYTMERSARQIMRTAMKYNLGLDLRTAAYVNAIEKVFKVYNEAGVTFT
endpoint: IC50

**Query** So what does the record say about IC50 for `C[C@]12CC[C@@H]3c4ccc(O)cc4CC[C@H]3[C@@H]1C[C@@H](O)[C@@H]2O` ?
**Result** 2.43 µM

**Query** So what does the record say about IC50 for `CC(=O)[C@H]1CC[C@H]2[C@@H]3CCC4=CC(=O)CC[C@]4(C)[C@H]3CC[C@]12C` ?
**Result** 8.62 µM

**Query** So what does the record say about IC50 for `CC/C(=C(/CC)c1ccc(O)cc1)c1ccc(O)cc1` ?
**Result** 0.51 µM

* * *

molecular target: wild-type hGDH1 (Homo sapiens); construct: made in house; host or cells: Sf21 insect cells, baculovirus; assay: Inhibition of purified recombinant GDH by female steroidal hormones; assay type: biochemical; settings: 0.1 mM ADP; read-out: IC50
Field: IC50. Provide a value for each of the compounds that follow.
Give the value, in units of µM, as a plain number.

**Query** So what does the record say about IC50 for `CC/C(=C(/CC)c1ccc(O)cc1)c1ccc(O)cc1` ?
**Result** 7.07

**Query** So what does the record say about IC50 for `CC(=O)[C@H]1CC[C@H]2[C@@H]3CCC4=CC(=O)CC[C@]4(C)[C@H]3CC[C@]12C` ?
**Result** 596

**Query** So what does the record say about IC50 for `C[C@]12CC[C@@H]3c4ccc(O)cc4CC[C@H]3[C@@H]1C[C@@H](O)[C@@H]2O` ?
**Result** 316

* * *

target: hGDH2 (Homo sapiens); construct: made in house; host or cells: Sf21 insect cells, baculovirus; assay: GTP inhibition of purified recombinant GDH activity; assay type: biochemical; details: No ADP
endpoint: pIC50
Please report pIC50 as the negative decimal logarithm of the molar concentration, giving only the number.

**Query** So what does the record say about pIC50 for `Nc1nc2c(ncn2[C@@H]2O[C@H](COP(=O)(O)OP(=O)(O)OP(=O)(O)O)[C@@H](O)[C@H]2O)c(=O)[nH]1` ?
**Result** 4.40

* * *

molecular target: hGDH1 (Homo sapiens); experiment: Allosteric stimulation of recombinant GDH by ADP or L-leucine; assay type: biochemical; design: made in house; host or cells: Sf21 insect cells, baculovirus; details: positive modulation; read-out: L-leucine SC50
endpoint: EC50 (µM)
Give the value, in units of µM, as a plain number.

**Query** So what does the record say about EC50 for `CC(C)C[C@H](N)C(=O)O` ?
**Result** 860

* * *

molecular target: hGDH1 (Homo sapiens, UniProt P00367); experiment: Allosteric stimulation of recombinant GDH by ADP or L-leucine; format: biochemical; set-up: made in house; host or cells: Sf21 insect cells, baculovirus; conditions: positive modulation; read-out: ADP SC50
Sequence (P00367 54-558): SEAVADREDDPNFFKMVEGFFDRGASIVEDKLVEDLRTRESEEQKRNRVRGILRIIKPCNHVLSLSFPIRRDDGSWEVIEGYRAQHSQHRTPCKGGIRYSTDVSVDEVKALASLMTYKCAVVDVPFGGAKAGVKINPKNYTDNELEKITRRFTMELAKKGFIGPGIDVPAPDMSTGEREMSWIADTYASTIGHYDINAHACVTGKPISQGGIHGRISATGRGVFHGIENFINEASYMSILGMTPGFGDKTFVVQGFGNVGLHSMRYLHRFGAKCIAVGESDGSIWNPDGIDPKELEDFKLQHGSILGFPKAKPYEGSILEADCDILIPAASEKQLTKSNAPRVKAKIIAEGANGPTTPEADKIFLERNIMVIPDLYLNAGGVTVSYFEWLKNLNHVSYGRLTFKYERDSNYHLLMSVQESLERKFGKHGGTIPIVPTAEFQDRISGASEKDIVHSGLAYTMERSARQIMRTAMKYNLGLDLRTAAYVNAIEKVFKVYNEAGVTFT
endpoint: pEC50
Please report pEC50 as the negative decimal logarithm of the molar concentration, giving only the number.

**Query** So what does the record say about pEC50 for Nc1ncnc2c1ncn2[C@@H]1O[C@H](COP(=O)(O)OP(=O)(O)O)[C@@H](O)[C@H]1O [ADP] ?
**Result** 4.65

* * *

target: Ala445-hGDH2 (Homo sapiens, UniProt P49448, S498A); test: GTP inhibition of purified recombinant GDH activity; format: biochemical; design: made in house; host or cells: Sf21 insect cells, baculovirus; details: 0.1 mM ADP
Sequence (P49448 54-558 S498A): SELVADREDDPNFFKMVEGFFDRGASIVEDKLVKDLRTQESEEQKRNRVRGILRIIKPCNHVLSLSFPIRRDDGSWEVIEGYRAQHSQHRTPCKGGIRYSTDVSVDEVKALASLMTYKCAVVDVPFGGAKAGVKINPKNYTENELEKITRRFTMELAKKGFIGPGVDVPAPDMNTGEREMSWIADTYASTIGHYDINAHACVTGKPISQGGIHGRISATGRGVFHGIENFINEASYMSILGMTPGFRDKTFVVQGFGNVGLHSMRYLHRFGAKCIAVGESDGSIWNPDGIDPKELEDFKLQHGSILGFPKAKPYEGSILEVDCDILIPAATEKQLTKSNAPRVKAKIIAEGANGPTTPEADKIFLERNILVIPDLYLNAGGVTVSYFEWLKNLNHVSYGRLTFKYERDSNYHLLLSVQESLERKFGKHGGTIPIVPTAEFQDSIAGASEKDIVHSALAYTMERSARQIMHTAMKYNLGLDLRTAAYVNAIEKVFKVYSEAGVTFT
endpoint: IC50 (µM)
Give the value, in units of µM, as a plain number.

**Query** Record lookup: for Ala445-hGDH2 (Homo sapiens, UniProt P49448, S498A), what IC50 belongs to `Nc1nc2c(ncn2[C@@H]2O[C@H](COP(=O)(O)OP(=O)(O)OP(=O)(O)O)[C@@H](O)[C@H]2O)c(=O)[nH]1` ?
**Result** 24.4

* * *

molecular target: Ala445-hGDH2 (Homo sapiens, UniProt P49448, S498A); test: Allosteric stimulation of recombinant GDH by ADP or L-leucine; format: biochemical; set-up: made in house; host or cells: Sf21 insect cells, baculovirus; settings: positive modulation; read-out: ADP SC50
endpoint: pEC50
Please report pEC50 as the negative decimal logarithm of the molar concentration, giving only the number.

**Query** So what does the record say about pEC50 for `Nc1ncnc2c1ncn2[C@@H]1O[C@H](COP(=O)(O)OP(=O)(O)O)[C@@H](O)[C@H]1O` ?
**Result** 4.24
